target: recombinant Mcl-1 (residues 172-327) (Homo sapiens (Human)); experiment: Bak peptide fluorescence polarization anisotropy competition assay, Mcl-1; type: binding; settings: read-out: Ki for inhibition of Mcl-1
Kindly supply the reported Ki values for the records listed here.

recombinant Mcl-1 (residues 172-327) (Homo sapiens (Human)) assay, compound Cc1cc(OCCCc2c(C(=O)NS(=O)(=O)CCNC(=O)c3ccn[nH]3)[nH]c3ccccc23)cc(C)c1Cl [Example 181] , recorded Ki = 1000 to 9990 nM

recombinant Mcl-1 (residues 172-327) (Homo sapiens (Human)) assay, compound CC(=O)N1CCN(c2ccc(OCc3nn(C)c(C)c3-c3cccc4c(CCCOc5cc(C)c(Cl)c(C)c5)c(C(=O)NS(C)(=O)=O)n(Cc5cccnc5)c34)cc2)CC1 [Example 125] , recorded Ki = 101 to 299 nM

recombinant Mcl-1 (residues 172-327) (Homo sapiens (Human)) assay, compound Cc1cc(OCCCc2c(C(=O)NS(=O)(=O)CCNC(=O)c3ccccc3)[nH]c3ccccc23)cc(C)c1Cl [Example 161] , recorded Ki = 301 to 500 nM

recombinant Mcl-1 (residues 172-327) (Homo sapiens (Human)) assay, compound CS(=O)(=O)NC(=O)c1cc2ccccc2n1CCCOc1cccc2ccccc12 [Example 14] , recorded Ki = 301 to 500 nM

recombinant Mcl-1 (residues 172-327) (Homo sapiens (Human)) assay, compound Cc1cc(OCCCc2c(C(=O)NS(=O)(=O)CCNC(=O)c3cccn3Cc3ccccc3)n(Cc3ccccc3)c3cc(Cl)ccc23)cc(C)c1Cl [Example 278] , recorded Ki = 101 to 299 nM

recombinant Mcl-1 (residues 172-327) (Homo sapiens (Human)) assay, compound CS(=O)(=O)NC(=O)c1[nH]c2ccccc2c1CCCOc1ccc(Cl)cc1 [Example 35] , recorded Ki = 10000 to 50000 nM

recombinant Mcl-1 (residues 172-327) (Homo sapiens (Human)) assay, compound Cc1cc(OCCCc2c(C(=O)NS(C)(=O)=O)sc3cc(Cl)ccc23)cc(C)c1Cl [Example 72] , recorded Ki = 1000 to 9990 nM

----------
Kindly supply the reported pKi values for the records listed here.
molecular target: recombinant Mcl-1 (residues 172-327) (Homo sapiens (Human), UniProt Q07820); experiment: Bak peptide fluorescence polarization anisotropy competition assay, Mcl-1; format: binding
Sequence (Q07820 172-327): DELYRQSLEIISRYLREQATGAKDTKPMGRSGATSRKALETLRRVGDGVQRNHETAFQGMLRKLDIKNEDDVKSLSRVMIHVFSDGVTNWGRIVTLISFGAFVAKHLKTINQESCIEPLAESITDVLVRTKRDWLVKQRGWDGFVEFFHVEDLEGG
pKi: −log10 of the molar value.

Entry Cc1cc(OCCCc2c(C(=O)NS(=O)(=O)CCNC(=O)c3cn(Cc4ccccc4)c4ccccc34)[nH]c3ccccc23)cc(C)c1Cl [Example 201] ; pKi = 6.52 to 7.00

Entry Cc1cccc(S(=O)(=O)NC(=O)c2c(CCCOc3cc(C)c(Cl)c(C)c3)c3ccc(Cl)cc3n2Cc2cccnc2)c1 [Example 273] ; pKi = 6.52 to 7.00

----------
Kindly supply the reported pKi values for the records listed here.
target: recombinant Mcl-1 (residues 172-327) (Homo sapiens (Human)); experiment: Bak peptide fluorescence polarization anisotropy competition assay, Mcl-1; format: binding; conditions: read-out: Ki for inhibition of Mcl-1
pKi: −log10 of the molar value.

Entry "Cc1cc(OCCCc2c(C(=O)NS(=O)(=O)c3cccc4ccccc34)oc3ccccc23)cc(C)c1Cl" ; pKi = 5.00 to 6.00

Entry "Cc1cc(OCCCc2c(C(=O)NS(=O)(=O)CCNC(=O)c3ccoc3C)[nH]c3ccccc23)cc(C)c1Cl" ; pKi = 6.52 to 7.00

Entry "CCC(=O)NCCS(=O)(=O)NC(=O)c1[nH]c2cc(Cl)ccc2c1CCCOc1cc(C)c(Cl)c(C)c1" ; pKi = 6.52 to 7.00

Entry "Cc1cc(OCCCc2c(C(=O)NS(=O)(=O)c3ccccc3)[nH]c3c(-c4cccs4)cccc23)cc(C)c1Cl" ; pKi = 6.52 to 7.00

----------
molecular target: recombinant Mcl-1 (residues 172-327) (Homo sapiens (Human), UniProt Q07820); assay: Bak peptide fluorescence polarization anisotropy competition assay, Mcl-1; format: binding; details: read-out: Ki for inhibition of Mcl-1
Test readout: Ki

Entry Cc1cc(OCCCc2c(C(=O)NS(=O)(=O)CCNS(=O)(=O)c3ccccc3)[nH]c3ccccc23)cc(C)c1Cl [Example 146] ; Ki = 0.101 to 0.299 µM

Entry Cc1cc(OCCCc2c(C(=O)NS(=O)(=O)CCNC(=O)c3cccc(-c4ccccc4)c3)[nH]c3ccccc23)cc(C)c1Cl [Example 165] ; Ki = 0.301 to 0.5 µM

Entry CS(=O)(=O)NC(=O)c1[nH]c2cc(Cl)ccc2c1CCCOc1cccc2c1CCC2 [Example 106] ; Ki = 1 to 9.99 µM

Entry O=C(O)c1sc2ccccc2c1CCCc1cccc2ccccc12 [Example 63] ; Ki = 1 to 9.99 µM

Entry O=C(NS(=O)(=O)C(F)(F)F)c1cc2ccccc2n1CCCOc1cccc2ccccc12 [Example 15] ; Ki = 0.501 to 0.999 µM

Entry COc1ccc(OCCCc2c(C(=O)NS(C)(=O)=O)[nH]c3cc(Cl)ccc23)cc1 [Example 109] ; Ki = 10 to 50 µM

Entry Cc1cc(OCCCc2c(C(=O)NS(=O)(=O)CCNC(=O)c3cccn3Cc3ccccc3F)[nH]c3cc(Cl)ccc23)cc(C)c1Cl [Example 248] ; Ki = 0.101 to 0.299 µM

----------
target: recombinant Mcl-1 (residues 172-327) (Homo sapiens (Human)); experiment: Bak peptide fluorescence polarization anisotropy competition assay, Mcl-1; assay type: binding; settings: read-out: Ki for inhibition of Mcl-1
pKi: −log10 of the molar value.
Kindly supply the reported pKi values for the records listed here.

Entry "CS(=O)(=O)NC(=O)c1[nH]c2cc(Cl)ccc2c1CCCOc1ccc(Cl)c2ccccc12" ; pKi = 6.30 to 6.52

Entry "Cc1cc(OCCCc2c(C(=O)NS(=O)(=O)CCNC(=O)C3CCCCC3)n(Cc3cccnc3)c3cc(Cl)ccc23)cc(C)c1Cl" ; pKi = 6.52 to 7.00

Entry "Cc1cc(OCCCc2c(C(=O)NS(=O)(=O)c3ccncc3)[nH]c3ccccc23)cc(C)c1Cl" ; pKi = 6.30 to 6.52

Entry "CS(=O)(=O)NC(=O)c1[nH]c2cccc(Cl)c2c1CCCOc1cccc2ccccc12" ; pKi = 6.52 to 7.00

Entry "Cc1cc(OCCCc2c(C(=O)NS(=O)(=O)c3ccccc3)n(Cc3cccnc3)c3cc(Cl)ccc23)cc(C)c1Cl" ; pKi = 6.52 to 7.00

Entry "COc1ccc(Cn2cccc2C(=O)NCCS(=O)(=O)NC(=O)c2[nH]c3cc(Cl)ccc3c2CCCOc2cc(C)c(Cl)c(C)c2)cc1" ; pKi = 6.52 to 7.00

Entry "Cc1cc(OCCCc2c(C(=O)NS(=O)(=O)CCNC(=O)c3ccc(Oc4ccccc4)cc3)[nH]c3ccccc23)cc(C)c1Cl" ; pKi = 6.30 to 6.52

----------
Kindly supply the reported pKi values for the records listed here.
molecular target: recombinant Mcl-1 (residues 172-327) (Homo sapiens (Human), UniProt Q07820); test: Bak peptide fluorescence polarization anisotropy competition assay, Mcl-1; type: binding; settings: read-out: Ki for inhibition of Mcl-1
pKi: −log10 of the molar value.

Entry "Cc1ccoc1C(=O)NCCS(=O)(=O)NC(=O)c1[nH]c2ccccc2c1CCCOc1cc(C)c(Cl)c(C)c1" ; pKi = 6.00 to 6.30

Entry "COc1ccc(Oc2cccc(S(=O)(=O)NC(=O)c3[nH]c4ccccc4c3CCCOc3cc(C)c(Cl)c(C)c3)c2)cc1" ; pKi = 6.30 to 6.52

Entry "Cc1ccc(C(=O)NCCS(=O)(=O)NC(=O)c2[nH]c3ccccc3c2CCCOc2cc(C)c(Cl)c(C)c2)o1" ; pKi = 6.52 to 7.00

Entry "Cc1cc(OCCCc2c(C(=O)NS(=O)(=O)CCNC(=O)c3ccoc3)[nH]c3ccccc23)cc(C)c1Cl" ; pKi = 6.52 to 7.00

Entry "CS(=O)(=O)NC(=O)c1[nH]c2ccccc2c1CCCOc1ccc(Br)cc1" ; pKi = 4.30 to 5.00

Entry "O=C(NCCS(=O)(=O)NC(=O)c1[nH]c2cc(Cl)ccc2c1CCCOc1cccc2ccccc12)c1ccc2cc[nH]c2c1" ; pKi = 6.30 to 6.52

Entry "Cc1cc(OCCCc2c(C(=O)NS(=O)(=O)CCNS(=O)(=O)c3ccc(Cl)c(Cl)c3)[nH]c3ccccc23)cc(C)c1Cl" ; pKi = 6.52 to 7.00

----------
Kindly supply the reported pKi values for the records listed here.
molecular target: recombinant Mcl-1 (residues 172-327) (Homo sapiens (Human), UniProt Q07820); assay: Bak peptide fluorescence polarization anisotropy competition assay, Mcl-1; format: binding; conditions: read-out: Ki for inhibition of Mcl-1
pKi: −log10 of the molar value.

recombinant Mcl-1 (residues 172-327) (Homo sapiens (Human), UniProt Q07820) assay, compound Cc1cc(OCCCc2c(C(=O)NS(=O)(=O)CCc3ccccc3)[nH]c3ccccc23)cc(C)c1Cl [Example 140] , recorded pKi = 6.00 to 6.30

recombinant Mcl-1 (residues 172-327) (Homo sapiens (Human), UniProt Q07820) assay, compound Cc1cc(OCCCc2c(C(=O)NS(C)(=O)=O)sc3ccccc23)cc(C)c1Cl [Example 68] , recorded pKi = 5.00 to 6.00

recombinant Mcl-1 (residues 172-327) (Homo sapiens (Human), UniProt Q07820) assay, compound Cc1cc(OCCCc2c(C(=O)NS(=O)(=O)c3ccc(C(=O)NC4CCOCC4)o3)[nH]c3cc(Cl)ccc23)cc(C)c1Cl [Example 263] , recorded pKi = 6.52 to 7.00

recombinant Mcl-1 (residues 172-327) (Homo sapiens (Human), UniProt Q07820) assay, compound Cc1cc(OCCCc2c(C(=O)NS(=O)(=O)CCNC(=O)c3cccn3Cc3cccc(F)c3)[nH]c3cc(Cl)ccc23)cc(C)c1Cl [Example 246] , recorded pKi = 6.52 to 7.00

recombinant Mcl-1 (residues 172-327) (Homo sapiens (Human), UniProt Q07820) assay, compound Cc1cc(OCCCc2c(C(=O)NS(=O)(=O)CCNC(=O)C3CCCCC3)[nH]c3cccc(Cl)c23)cc(C)c1Cl [Example 208] , recorded pKi = 6.30 to 6.52

recombinant Mcl-1 (residues 172-327) (Homo sapiens (Human), UniProt Q07820) assay, compound Cc1cc(OCCCc2c(C(=O)NS(=O)(=O)CCNC(=O)c3cc(Br)no3)[nH]c3ccccc23)cc(C)c1Cl [Example 185] , recorded pKi = 6.00 to 6.30

recombinant Mcl-1 (residues 172-327) (Homo sapiens (Human), UniProt Q07820) assay, compound Cc1cc(OCCCc2c(C(=O)NS(=O)(=O)CCNC(=O)Cc3cn(C)c4ccccc34)[nH]c3cc(Cl)ccc23)cc(C)c1Cl [Example 235] , recorded pKi = 6.52 to 7.00

recombinant Mcl-1 (residues 172-327) (Homo sapiens (Human), UniProt Q07820) assay, compound Cc1cc(OCCCc2c(C(=O)NS(=O)(=O)CCNC(=O)c3c[nH]cn3)[nH]c3ccccc23)cc(C)c1Cl [Example 186] , recorded pKi = 5.00 to 6.00
